tgt: human ether-à-go-go-related gene (hERG) potassium channel (human)
method_description: primary screen, population patch clamp on CHO cells stably expressing hERG; higher = less effect of the substance;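 note: peak tail current of the secondary pulse compared with the same well before compound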
Protocol: Briefly, Chinese hamster ovary (CHO) cells stably expressing the hERG channel were dislodged from tissue culture flasks and dispensed into PPC plates. […] During the recording, background leak currents were estimated by a 100 ms step to -80 mV from an initial holding potential of -70 mV and subtracted from the subsequent current measurement. The campaign was conducted in two phases using slight differences in recording protocol. […]
Screen size: about 310,000 compounds; about 14,000 (4.5%) showed an effect of 50% or more. The effect is printed as a negative number. The entries come from a sample that favours strong results as a whole.
Give measured hERG current change (%, negative = inhibition) at 10uM for each item. Keep answers brief.
Give bare numbers, in %.

Example compounds with recorded hERG current change (%, negative = inhibition) at 10uM:
# compound, value_reported
data = [
    ("CC(C)(C)C(=O)Nc1ccc(F)cc1[N+](=O)[O-]", 5.56),
    ("Cc1ccccc1NC(=O)CSc1nc2ccccc2c2nc(CCn3cncc3C)nn12", -55.6),
    ("O=c1cc(CN2CCN(S(=O)(=O)c3ccccc3)CC2)nc2ccc(Cl)cn12", -56),
    ("O=C(Nc1c(F)cc(F)cc1Br)c1cccnc1", 8.61),
]

# return hERG current change (%, negative = inhibition) at 10uM for each item in the list
1. Cc1ccc(NC(=O)CSc2nc3ccccc3c3nc(CCc4c(C)n[nH]c4C)nn23)cc1F
2. Cc1ccc(S(=O)(=O)N2CCN(Cc3cc(=O)n4ccccc4n3)CC2)c(C)c1

(A)
1. -11.7
2. -80.6

###

Give measured hERG current change (%, negative = inhibition) at 10uM for each item. Keep answers brief.
tgt: human ether-à-go-go-related gene (hERG) potassium channel (human, UniProt Q12809)
Sequence (Q12809 whole entry, looked up): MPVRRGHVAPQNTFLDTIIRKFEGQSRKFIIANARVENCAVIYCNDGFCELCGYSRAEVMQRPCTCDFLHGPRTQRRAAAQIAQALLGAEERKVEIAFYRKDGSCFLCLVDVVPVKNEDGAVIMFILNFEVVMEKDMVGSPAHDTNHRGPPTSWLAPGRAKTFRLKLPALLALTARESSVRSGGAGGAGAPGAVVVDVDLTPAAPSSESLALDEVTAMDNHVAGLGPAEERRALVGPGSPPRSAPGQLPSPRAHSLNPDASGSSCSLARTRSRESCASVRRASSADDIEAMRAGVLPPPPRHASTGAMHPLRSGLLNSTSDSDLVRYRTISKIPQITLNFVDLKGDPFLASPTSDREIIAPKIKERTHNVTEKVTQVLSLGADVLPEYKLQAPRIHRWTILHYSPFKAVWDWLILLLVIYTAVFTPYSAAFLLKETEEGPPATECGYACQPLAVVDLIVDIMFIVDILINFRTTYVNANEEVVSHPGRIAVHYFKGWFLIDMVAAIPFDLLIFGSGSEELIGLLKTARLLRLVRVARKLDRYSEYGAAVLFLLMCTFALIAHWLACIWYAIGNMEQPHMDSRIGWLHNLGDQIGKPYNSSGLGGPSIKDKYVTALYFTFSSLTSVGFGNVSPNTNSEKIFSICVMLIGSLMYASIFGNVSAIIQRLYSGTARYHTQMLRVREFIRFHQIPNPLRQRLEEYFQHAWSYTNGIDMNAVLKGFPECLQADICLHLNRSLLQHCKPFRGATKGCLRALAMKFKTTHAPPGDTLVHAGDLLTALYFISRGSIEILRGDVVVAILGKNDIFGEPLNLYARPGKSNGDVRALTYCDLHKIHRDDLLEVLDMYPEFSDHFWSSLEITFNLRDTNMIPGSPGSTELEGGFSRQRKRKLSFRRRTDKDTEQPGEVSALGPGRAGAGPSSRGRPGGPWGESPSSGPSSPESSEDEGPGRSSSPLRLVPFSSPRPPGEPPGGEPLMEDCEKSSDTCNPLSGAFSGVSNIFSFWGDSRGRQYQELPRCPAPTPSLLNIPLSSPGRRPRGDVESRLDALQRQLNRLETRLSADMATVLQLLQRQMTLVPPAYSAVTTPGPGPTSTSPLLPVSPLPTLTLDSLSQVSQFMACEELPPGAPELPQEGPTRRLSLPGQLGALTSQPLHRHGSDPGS
method_description: primary screen, population patch clamp on CHO cells stably expressing hERG; higher = less effect of the substance
In all, about 310,000 compounds went through this assay and about 14,000 (4.5%) showed an effect of 50% or more. Effects have a minus sign here. The full list was thinned out, with strong results kept by preference.
Give bare numbers, in %.

# compound, units_symbol, value_reported
measured = [
    ("O=C(CN1CCOCC1)Nc1cccc(C(=O)Nc2cccc(C(F)(F)F)c2)c1", "%", -40.1),
]

# return hERG current change (%, negative = inhibition) at 10uM for each item in the list
1. COc1ccc(N2CCN(C(=O)c3ccc4c(c3)[nH]c(=S)n3c5ccccc5nc43)CC2)cc1
2. COc1ccc2c(c1)CCc1c(C(=O)Nc3cc(C)n(Cc4ccc(Cl)cc4)n3)noc1-2
3. CC(=O)N1CCN(CC(=O)Nc2cccc(S(=O)(=O)N3CCCCCC3)c2)CC1
4. O=C(Cc1ccccc1)Nc1cccc(S(=O)(=O)N2CCCCCC2)c1
5. CC(C)(C)C(=O)NC(=S)Nc1ccccc1C(=O)NC1CCCCC1
6. Cc1oc2cc(O)cc(O)c2c(=O)c1-c1ccc2c(c1)OCCCO2
7. Cc1ccc(CCN2C(Nc3ccccc3)=NC[C@@H]2C)cc1

(A)
1: 16.7; 2: -30.5; 3: -23.3; 4: -49.1; 5: -18; 6: 3.88; 7: -35.9

# return hERG current change (%, negative = inhibition) at 10uM for each item in the list
1. CCOc1ccc(N2CC(C(=O)N3CCc4ccccc43)CC2=O)cc1 (stereo not drawn)
2. O=C(CN1CCOCC1)Nc1cccc(C(F)(F)F)c1
3. O=C(NCC1OCCCN1S(=O)(=O)c1ccc(F)cc1)C(=O)NC1CCCC1 (stereo not drawn)
4. CCCc1cc(=O)oc2cc(OCC(=O)NCCCN3CCOCC3)c(Cl)cc12
5. O=C(CN1CCN(Cc2ccccc2)CC1)Nc1cccc(C(F)(F)F)c1
6. CC(C)CCCN1C(Nc2ccccc2)=NC[C@@H]1C
7. CCCCN1C(N)=NC[C@@H]1Cc1ccccc1
8. CCOc1ccc(N2CC(C(=O)N3CC(C)OC(C)C3)CC2=O)cc1 (stereo not drawn)

(A)
1: -47.6; 2: -3; 3: -15.8; 4: -73; 5: -71.6; 6: -11.4; 7: 0.376; 8: 20

# return hERG current change (%, negative = inhibition) at 10uM for each item in the list
1. Cc1cc(OCC(=O)NCCCn2ccnc2)c2c(C)cc(=O)oc2c1
2. CCc1cc(=O)oc2cc(C)cc(OCC(=O)NCCCN3CCOCC3)c12
3. O=C(CN1CCN(Cc2ccccc2)CC1)Nc1cccc(S(=O)(=O)N2CCCCCC2)c1
4. CN(Cc1ccccc1)c1cc(Cl)nc(N)n1
5. CCCCN1C(Nc2ccccc2)=NC[C@@H]1C
6. NS(=O)(=O)c1ccc(CCNC(=O)CN2CCN(c3ccc(F)cc3)CC2)cc1

(A)
-22.5
-11.1
-76.3
-1.61
14.4
-18.7

# return hERG current change (%, negative = inhibition) at 10uM for each item in the list
1. CCCCCCCN1C(Nc2ccccc2)=NC[C@@H]1Cc1ccccc1
2. CC1CN(CC(=O)Nc2cccc(C(=O)Nc3cccc(C(F)(F)F)c3)c2)CC(C)O1 (stereo not drawn)
3. C[C@H]1CN=C(Nc2ccccc2)N1CCc1ccccc1
4. CCc1ccc(N2CC(C(=O)N3CCN(c4ccccn4)CC3)CC2=O)cc1 (stereo not drawn)
5. Cc1ccc(N2C(=O)C(Cc3ccc(O)cc3)NC2=S)cc1C (stereo not drawn)
6. CCOc1ccc(N2CC(C(=O)N3CCCc4ccccc43)CC2=O)cc1 (stereo not drawn)
7. CCCCN1C(Nc2ccccc2)=NC[C@@H]1Cc1ccccc1

(A)
1: -83.3; 2: -54.3; 3: -9.89; 4: -24.3; 5: -7.04; 6: -62.6; 7: -66.1

# return hERG current change (%, negative = inhibition) at 10uM for each item in the list
1. CCCc1cc(=O)oc2cc(OC(C)C(=O)NCCCn3ccnc3)ccc12 (stereo not drawn)
2. COc1cc(-c2cc(C(=O)Nc3ccc(S(=O)(=O)Nc4ncccn4)cc3)c3ccccc3n2)cc(OC)c1OC
3. Cc1nn(-c2ccccc2)c(C)c1-c1nnc(C(F)(F)F)o1
4. CCc1ccc(CNCCc2c[nH]c3ccccc23)cc1.O=C(O)C(=O)O
5. O=C(CN1CCN(c2ccccc2)CC1)Nc1cccc(C(F)(F)F)c1
6. Cc1cc(N(C)Cc2ccccc2)nc2cc(O)ccc12
7. COc1ccccc1N1CCN(CCC(=O)Nc2ccc(F)cc2)CC1

(A)
1. -42.1
2. -7.01
3. 2.32
4. -40.9
5. 2
6. -56.4
7. -19.3

###

Give measured hERG current change (%, negative = inhibition) at 10uM for each item. Keep answers brief.
tgt: human ether-à-go-go-related gene (hERG) potassium channel (human)
method_description: primary screen, population patch clamp on CHO cells stably expressing hERG; higher = less effect of the substance
Among all 310,000 compounds or so, about 14,000 (4.5%) showed an effect of 50% or more. The effect is printed as a negative number. For the sample, strong results were picked, then their nearest neighbours and some compounds at random.

Example compounds with recorded hERG current change (%, negative = inhibition) at 10uM:
# compound, tgt, value_reported
data = [
    ("O=C(Nc1cccnc1)/C(N=Nc1ccc(Cl)c(C(F)(F)F)c1)=C(\\O)c1ccccc1", "human ether-à-go-go-related gene (hERG) potassium channel (human)", "29.3%"),
    ("COCCn1c(SCC(=O)NC2CCCC2)nnc1C(C)C", "human ether-à-go-go-related gene (hERG) potassium channel (human)", "22.6%"),
    ("CCCNC(=O)c1cc(C)no1", "human ether-à-go-go-related gene (hERG) potassium channel (human)", "12.6%"),
]

# return hERG current change (%, negative = inhibition) at 10uM for each item in the list
1. CC(C)(C)C(=O)Cn1c(=O)n(-c2ccc(F)cc2F)c(=O)c2sccc21
2. COCC(C)n1c(C)cc(C(=O)CSc2nnnn2C2CCCC2)c1C (centres unmarked)
3. CC(=O)C(Sc1ccc2nnc(-c3cccnc3)n2n1)C(C)=O
4. COc1ccc(Nc2nc(N)nc(COc3ccc(OC)cc3)n2)cc1
5. O=C(Nc1ccc(N2CCN(C(=O)C3CC3)CC2)cc1)c1cccs1
6. COc1cc(C(=O)OCCN2CCOCC2)cc(OC)c1OC
7. CCC(C(=O)NCc1ccc(C)cc1)c1ccccc1 (centres unmarked)
8. O=C(Nc1cccnc1)/C(N=Nc1cccnc1)=C(\O)c1ccccc1

(A)
1: 4.28%; 2: -33.2%; 3: -2.29%; 4: 4.75%; 5: 2.17%; 6: -5.95%; 7: -1.35%; 8: -53%

###

Give measured hERG current change (%, negative = inhibition) at 10uM for each item. Keep answers brief.
tgt: human ether-à-go-go-related gene (hERG) potassium channel (human)
method_description: primary screen, population patch clamp on CHO cells stably expressing hERG; higher = less effect of the substance
In all, about 310,000 compounds went through this assay and about 14,000 (4.5%) showed an effect of 50% or more. The effect is printed as a negative number. The entries come from a sample that favours strong results as a whole.
# output: numeric value plus its unit

# compound, tgt, value_reported
rows = [
    ("COc1cccc(CC2(CO)CCCN(Cc3ccc(-c4ccco4)cc3)C2)c1 (stereo not drawn)", "human ether-à-go-go-related gene (hERG) potassium channel (human)", "-3.75%"),
    ("OC(CNCC1(N2CCCCC2)CCCCC1)COc1ccc(Cl)cc1Cl (stereo not drawn)", "human ether-à-go-go-related gene (hERG) potassium channel (human)", "-73.7%"),
    ("O=C(Nc1cccc(Cl)c1)c1nc[nH]c1C(=O)N1CCN(c2ccccc2)CC1", "human ether-à-go-go-related gene (hERG) potassium channel (human)", "8.06%"),
    ("CCCC(=O)N1CCN(c2ccc(NC(=S)NC(=O)c3cccc(C)c3)cc2)CC1", "human ether-à-go-go-related gene (hERG) potassium channel (human)", "-18.3%"),
    ("Cc1c(Nc2nc3ccccc3nc2NS(=O)(=O)c2cccc(Cl)c2)c(=O)n(-c2ccccc2)n1C", "human ether-à-go-go-related gene (hERG) potassium channel (human)", "-2.18%"),
]

# return hERG current change (%, negative = inhibition) at 10uM for each item in the list
1. Cc1cc(Nc2c(C)n(C)n(-c3ccccc3)c2=O)n2c(nc3cc(F)c(F)cc32)c1C#N
2. Cc1cc(Nc2c(C)n(C)n(-c3ccccc3)c2=O)c2ccccc2n1
3. Cc1c(NP(=O)(c2ccc(Br)cc2)c2ccc(Br)cc2)c(=O)n(-c2ccccc2)n1C
4. Cc1c(Nc2nc(C(F)(F)F)nc3ccccc23)c(=O)n(-c2ccccc2)n1C

(A)
1. 19.2%
2. -20.3%
3. -65.7%
4. -1.37%
